Biological target: yeast HSP90 (Saccharomyces cerevisiae)
Test: Hsp90 ATPase assay (malachite green)
Assay type: biochemical
MEASURED QUANTITY: IC50

stdin: # get_value(readout='IC50', item= CC(=O)NCc1noc(-c2cc(C(C)C)c(O)cc2O)c1-c1ccsc1 )
stdout: > 1000 nM

stdin: # get_value(readout='IC50', item= CCNC(=O)c1noc(-c2cc(C(C)C)c(O)cc2O)c1-c1cc(CN2CCCC2)no1 )
stdout: 500 to 1000 nM

stdin: # get_value(readout='IC50', item= CCNC(=O)c1noc(-c2cc(C(C)C)c(O)cc2O)c1-c1cc(/C=N/OCC)no1 )
stdout: 500 to 1000 nM

stdin: # get_value(readout='IC50', item= CCNC(=O)c1noc(-c2cc(C(C)C)c(O)cc2O)c1-c1noc(-c2ccc([N+](=O)[O-])cc2)n1 )
stdout: < 500 nM

====

Molecular target: yeast HSP90 (Saccharomyces cerevisiae, UniProt P02829)
Sequence (P02829 whole entry): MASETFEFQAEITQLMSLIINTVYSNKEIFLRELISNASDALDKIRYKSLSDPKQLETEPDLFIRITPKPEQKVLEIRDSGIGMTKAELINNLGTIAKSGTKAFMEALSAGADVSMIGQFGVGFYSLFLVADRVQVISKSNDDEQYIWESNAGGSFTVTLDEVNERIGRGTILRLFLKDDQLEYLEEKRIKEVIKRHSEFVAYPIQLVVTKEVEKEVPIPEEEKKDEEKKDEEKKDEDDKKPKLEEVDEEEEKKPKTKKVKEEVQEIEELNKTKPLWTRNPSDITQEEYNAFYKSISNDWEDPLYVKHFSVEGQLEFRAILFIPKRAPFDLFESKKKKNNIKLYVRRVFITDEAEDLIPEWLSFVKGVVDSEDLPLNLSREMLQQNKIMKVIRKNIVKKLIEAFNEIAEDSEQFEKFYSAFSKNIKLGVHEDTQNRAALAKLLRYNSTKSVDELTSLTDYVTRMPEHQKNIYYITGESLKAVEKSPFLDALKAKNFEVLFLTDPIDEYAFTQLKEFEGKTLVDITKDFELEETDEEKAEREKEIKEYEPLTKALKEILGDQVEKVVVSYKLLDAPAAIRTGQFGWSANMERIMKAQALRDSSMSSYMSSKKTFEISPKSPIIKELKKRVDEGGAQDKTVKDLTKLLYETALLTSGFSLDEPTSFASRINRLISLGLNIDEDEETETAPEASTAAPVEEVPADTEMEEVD
Assay: Hsp90 ATPase assay (malachite green)
Assay type: biochemical
For each of the compounds below, state its IC50.

stdin: # get_value(readout='IC50', item= CCNC(=O)c1noc(-c2cc(C(C)C)c(O)cc2O)c1C1CC(CO)=NO1 (centres unmarked) )
stdout: 500 to 1000 nM

stdin: # get_value(readout='IC50', item= CCNC(=O)c1noc(-c2cc(C(C)C)c(O)cc2O)c1-c1cnn(CC)c1 )
stdout: 500 to 1000 nM

stdin: # get_value(readout='IC50', item= CCNC(=O)c1noc(-c2cc(C(C)C)c(O)cc2O)c1-c1cc(CN2CCCCC2)no1 )
stdout: 500 to 1000 nM

stdin: # get_value(readout='IC50', item= CCNC(=O)c1noc(-c2cc(C(C)C)c(O)cc2O)c1-c1cn[nH]c1 )
stdout: < 500 nM

stdin: # get_value(readout='IC50', item= CCNC(=O)c1noc(-c2cc(C(C)C)c(O)cc2O)c1-c1nnn(C)n1 )
stdout: < 500 nM

stdin: # get_value(readout='IC50', item= CCNC(=O)c1nc(-c2c(C(=O)NCC)noc2-c2cc(C(C)C)c(O)cc2O)no1 )
stdout: 500 to 1000 nM

stdin: # get_value(readout='IC50', item= CCNC(=O)c1noc(-c2cc(C(C)C)c(O)cc2O)c1-c1noc([C@H](C)O)n1 )
stdout: 500 to 1000 nM

stdin: # get_value(readout='IC50', item= CCNC(=O)c1noc(-c2cc(C(C)C)c(O)cc2O)c1-c1noc(CN2CCCC2)n1 )
stdout: 500 to 1000 nM

====

Test system: human colorectal cancer cells (HCT116)
Assay: Growth inhibition assay (cytotoxicity) in HCT116
Assay type: cell-based
Conditions: HCT-116
For each of the molecules below, state its IC50.

stdin: # get_value(readout='IC50', item= CC(C)c1cc(-c2onc(CO)c2-c2ccsc2)c(O)cc1O )
stdout: > 1000 nM

stdin: # get_value(readout='IC50', item= CCNC(=O)c1noc(-c2cc(C(C)C)c(O)cc2O)c1-c1noc(-c2ccc(OC)cc2)n1 )
stdout: 500 to 1000 nM

stdin: # get_value(readout='IC50', item= CCNC(=O)c1noc(-c2cc(C(C)C)c(O)cc2O)c1-c1cc(COCC(=O)O)no1 )
stdout: > 1000 nM

stdin: # get_value(readout='IC50', item= CCNC(=O)c1noc(-c2cc(C(C)C)c(O)cc2O)c1-c1ccc(CN2CCOCC2)s1 )
stdout: < 500 nM

stdin: # get_value(readout='IC50', item= CCNC(=O)c1noc(-c2cc(C(C)C)c(O)cc2O)c1-c1cnn(C)c1 )
stdout: < 500 nM

stdin: # get_value(readout='IC50', item= CCNC(=O)c1nc(-c2c(C(=O)NCC)noc2-c2cc(C(C)C)c(O)cc2O)no1 )
stdout: < 500 nM

stdin: # get_value(readout='IC50', item= CCNC(=O)c1noc(-c2cc(C(C)C)c(O)cc2O)c1-c1cc(COCC(=O)OC)no1 )
stdout: < 500 nM

stdin: # get_value(readout='IC50', item= CCNC(=O)c1noc(-c2cc(Cl)c(O)cc2O)c1-c1cc(C(=O)OCC)no1 )
stdout: > 1000 nM

stdin: # get_value(readout='IC50', item= CCNC(=O)c1noc(-c2cc(C(C)C)c(O)cc2O)c1-c1noc(OC)n1 )
stdout: < 500 nM

stdin: # get_value(readout='IC50', item= CCNC(=O)c1noc(-c2cc(C(C)C)c(O)cc2O)c1-c1noc(C)n1 )
stdout: < 500 nM

stdin: # get_value(readout='IC50', item= CCNC(=O)c1noc(-c2cc(C(C)C)c(O)cc2O)c1-c1noc(C2CCCC2)n1 )
stdout: < 500 nM

stdin: # get_value(readout='IC50', item= CCNC(=O)c1noc(-c2cc(C(C)C)c(O)cc2O)c1-c1cc(/C=N/OC)no1 )
stdout: < 500 nM

stdin: # get_value(readout='IC50', item= CCNC(=O)c1noc(-c2cc(C(C)C)c(O)cc2O)c1-c1noc(C(=O)N(CC)CC)n1 )
stdout: 500 to 1000 nM

stdin: # get_value(readout='IC50', item= CCNC(=O)c1noc(-c2cc(C(C)C)c(O)cc2O)c1-c1noc(CN2CCCCC2)n1 )
stdout: < 500 nM

stdin: # get_value(readout='IC50', item= CCNC(=O)c1noc(-c2cc(C(C)C)c(O)cc2O)c1-c1cc(CN2CCSCC2)no1 )
stdout: < 500 nM

stdin: # get_value(readout='IC50', item= CCNC(=O)c1noc(-c2cc(C(C)C)c(O)cc2O)c1-c1cc(-c2ccccc2)no1 )
stdout: 500 to 1000 nM

stdin: # get_value(readout='IC50', item= CCNC(=O)c1noc(-c2cc(C(C)C)c(O)cc2O)c1-c1cc(CO)no1 )
stdout: < 500 nM

stdin: # get_value(readout='IC50', item= CCNC(=O)c1noc(-c2cc(C(C)C)c(O)cc2O)c1-c1noc(CN(C)C)n1 )
stdout: < 500 nM

stdin: # get_value(readout='IC50', item= CCNC(=O)c1noc(-c2cc(C(C)C)c(O)cc2O)c1-c1nnn[nH]1 )
stdout: > 1000 nM

stdin: # get_value(readout='IC50', item= CCNC(=O)c1noc(-c2cc(Cl)c(O)cc2O)c1-c1cc(CO)no1 )
stdout: > 1000 nM

stdin: # get_value(readout='IC50', item= CCNC(=O)c1noc(-c2cc(C(C)C)c(O)cc2O)c1-c1cc(CN)no1 )
stdout: < 500 nM

stdin: # get_value(readout='IC50', item= CCNC(=O)c1noc(-c2cc(C(C)C)c(O)cc2O)c1-c1cc(CNC(C)C)no1 )
stdout: < 500 nM

stdin: # get_value(readout='IC50', item= CCNC(=O)c1noc(-c2cc(C(C)C)c(O)cc2O)c1-c1cc(CNC)no1 )
stdout: < 500 nM

stdin: # get_value(readout='IC50', item= CCNC(=O)c1noc(-c2cc(C(C)C)c(O)cc2O)c1-c1cnn(CC)c1 )
stdout: < 500 nM

stdin: # get_value(readout='IC50', item= CCCN(CCC)Cc1cc(-c2c(C(=O)NCC)noc2-c2cc(C(C)C)c(O)cc2O)on1 )
stdout: < 500 nM

stdin: # get_value(readout='IC50', item= CCNC(=O)c1noc(-c2cc(C(C)C)c(O)cc2O)c1-c1nnnn1C )
stdout: < 500 nM

stdin: # get_value(readout='IC50', item= CCNC(=O)c1noc(-c2cc(C(C)C)c(O)cc2O)c1-c1cc(CNC(C)=O)no1 )
stdout: < 500 nM

stdin: # get_value(readout='IC50', item= CCNC(=O)c1noc(-c2cc(C(C)C)c(O)cc2O)c1-c1noc(-c2ccco2)n1 )
stdout: < 500 nM

stdin: # get_value(readout='IC50', item= CCNC(=O)c1noc(-c2cc(C(C)C)c(O)cc2O)c1-c1nnn(CC)n1 )
stdout: < 500 nM

stdin: # get_value(readout='IC50', item= CCNC(=O)c1noc(-c2cc(C(C)C)c(O)cc2O)c1-c1cc(COCC(N)=O)no1 )
stdout: < 500 nM

stdin: # get_value(readout='IC50', item= CCNC(=O)c1noc(-c2cc(C(C)C)c(O)cc2O)c1-c1cc(/C=N/OCC)no1 )
stdout: < 500 nM

stdin: # get_value(readout='IC50', item= CCNC(=O)c1noc(-c2cc(C(C)C)c(O)cc2O)c1-c1cc(COS(C)(=O)=O)no1 )
stdout: < 500 nM

stdin: # get_value(readout='IC50', item= CCNC(=O)c1noc(-c2cc(C(C)C)c(O)cc2O)c1-c1cc(CC#N)no1 )
stdout: < 500 nM
